Biological target: T1, Purified human GUCY2c ECD (recombinant, construct not stated) (human, UniProt P25092 24-430)
T1 construct: also called recombinant human GUCY2c; recombinant GUCY2c protein
T1 sequence (P25092 24-430 limits assumed): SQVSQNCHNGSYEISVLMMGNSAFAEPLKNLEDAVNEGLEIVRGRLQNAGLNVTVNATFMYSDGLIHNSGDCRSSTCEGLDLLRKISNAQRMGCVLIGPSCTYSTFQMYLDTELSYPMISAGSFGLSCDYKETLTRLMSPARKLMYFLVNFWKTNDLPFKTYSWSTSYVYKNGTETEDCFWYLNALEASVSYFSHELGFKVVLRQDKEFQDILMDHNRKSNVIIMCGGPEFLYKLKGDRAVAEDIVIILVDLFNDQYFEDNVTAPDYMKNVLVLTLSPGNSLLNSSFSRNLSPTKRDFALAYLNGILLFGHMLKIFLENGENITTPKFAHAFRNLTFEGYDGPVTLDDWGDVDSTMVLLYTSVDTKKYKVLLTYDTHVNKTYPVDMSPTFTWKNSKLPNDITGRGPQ
Test: ELISA; column 'Direct huGUCY2C binding (nM)'
Listed here are binders together with their documented EC50.
I only need the number, in pM, no unit after it.

// below: answered binders
[[record]]
binder = "GUCY2C-0212 (antibody, human IgG1, V domains shown) VH: EVQLVESGGGLVQPGGSLRLSCAASGYTFTSYWMHWVRQAPGKGLEWIGEIKPSNGLTNYIEKFKNRFTISRDNAKNSLYLQMNSLRAEDTAVYYCARTITTTEGYWFFDVWGQGTLVTVSS VL: DIQLTQSPSSLSASVGDRVTITCRASESVDYYGTSLMQWYQQKPGKAPKLLIYAASNVESGVPSRFSGSGSGTDFTLTISSLQPEDFATYYCQQTRKVYTFGQGTKLEIK"
observed = 769

[[record]]
binder = "GUCY2C-0179 (antibody, human IgG1, V domains shown) VH: EVQLVESGGGLVQPGGSLRLSCAASGYSFTDYIMLWVRQAPGKGLEWIGNSNPYYGSTSYNLKFKGRFTISVDKAKNSAYLQMNSLRAEDTAVYYCARSGYYGSSPYWYFDVWGQGTMVTVSS VL: DIQMTQSPSSLSASVGDRVTITCKSSQSLLYSSNQKNYLAWYQQKPGKSPKLLIYWASTRESGVPSRFSGSGSGTDFTLTISSLQPEDFATYYCQQYYSYPTFGGGTKVEIK"
observed = 5140

[[record]]
binder = "GUCY2C-0210 (antibody, human IgG1, V domains shown) VH: EVQLVESGGGLVQPGGSLRLSCAASGYTFTSYWMHWVRQAPGKGLEWIAEIKPSNGLTNYIEKFKNRFTISRDNAKNSLYLQMNSLRAEDTAVYYCARTITTTEGYWFFDVWGQGTLVTVSS VL: DIQLTQSPSSLSASVGDRVTITCRASESVDYYGTSLMQWYQQKPGKAPKLLIYAASNVESGVPSRFSGSGSGTDFTLTISSLQPEDFATYYCQQTRKVYTFGQGTKLEIK"
observed = 8960


-- ask Quick one: EC50 of GUCY2C-0193 (antibody, human IgG1, V domains shown) VH: EVQLVESGGGLVQPGGSLRLSCAASGYTFTSYWMHWVRQAPGKGLEWIGEIKPSNGLTNYIEKFKNRFTISVDKAKNSAYLQMNSLRAEDTAVYYCTRTITTTEGYWFFDVWGQGTLVTVSS VL: DIQMTQSPSSLSASVGDRVTITCRASESVDYYGTSLMQWYQQKPGKAPKLLIYAASNVESGVPSRFSGSGSGTDFTLTISSLQPEDFATYYCQQTRKVYTFGQGTKLEIK ?
-- reply 230

-- ask Give the measured EC50 of GUCY2C-0241 (antibody, human IgG1, kappa, V domains shown, humanized IgG1; used as scFv on phage in the binary substitution library) VH: EVQLVESGGGLVQPGGSLRLSCAASGYTFTSYWMHWVRQAPGKGLEWIGEIKPSNGLTNYIEKFKNRFTISVDKAKNSAYLQMNSLRAEDTAVYYCTRTITTTEGYWFFDVWGQGTLVTVSS VL: DIQLTQSPSSLSASVGDRVTITCRASESVDYYGTSLMQWYQQKPGKAPKLLIYAASNVESGVPSRFSGSGSGTDFTLTISSLQPEDFATYYCQQTRKVYTFGQGTKLEIKR .
-- reply 160

-- ask Field request: EC50 | item: GUCY2C-0166 (antibody, human IgG1, V domains shown, human IgG1) VH: EVQLVESGGGLVQPGGSLRLSCAASGYTFTTYWMQWVRQAPGKGLEWIGAIYPGDGMTTYTQKFKDRFTISADKAKNSAYLQMNSLRAEDTAVYYCVRKGMDYWGQGTLVTVSS VL: DIQLTQSPSSLSASVGDRVTITCRASESVDNYGISFMNWFQQKPGKAPKLLIYAASNPGSGVPSRFSGSGSGTDFTLTISSLQPEDFATYYCQQSKEVPYTFGQGTKLEIK
-- reply 69.3
